Hello, the source for this data is patent US20140295512A1, in case you need it.

Reported Ratio NADH/NADPH (U/mg) values are given for each entry in this list.
- testName: KARI assay of purified S. exigua KARI and variants with NADH (Examples 6-9)
- Assay type: biochemical
- settings: specific activity ratio
Returns: the value as a bare number; no unit string appended.

Some molecules with recorded Ratio NADH/NADPH (U/mg):
[
  {
    "molecule": "S63R: Slackia KARI variant with residue S63 mutated to R (protein, UniProt D0WGK0 1-342, looked up, variant S63R) Ketol-acid reductoisomerase …: MSVKTKEKEMAVTILYEQDVDPKVIQGLKVGIIGYGSQGHAHALNLMDSGVDVRVGLREGSSRWKTAEEAGLKVTDMDTAAEEADVIMVLVPDEIQPKVYQEHIAAHLKAGNTLAFAHGFNIHYGYIVPPEDVNVIMCAPKGPGHIVRRQFTEGSGVPDLACVQQDATGNAWDIVLSYCWGVGGARSGIIKATFAEETEEDLFGEQAVLCGGLVELVKAGFETLTEAGYPPELAYFECYHEMKMIVDLMYESGIHFMNYSISNTAEYGEYYAGPKVINEQSREAMKEILKRIQDGSFAQEFVDDCNNGHKRLLEQREAINTHPIETTGAQIRSMFSWIKKED",
    "measuredNumber": 3.7
  },
  {
    "molecule": "Se1_KARI^1A8: S. exigua KARI variant G60V, I95V, V99L (protein, UniProt D0WGK0 1-342, looked up, variant G60V I95V V99L) Ketol-acid reductoisomerase …: MSVKTKEKEMAVTILYEQDVDPKVIQGLKVGIIGYGSQGHAHALNLMDSGVDVRVGLREVSSSWKTAEEAGLKVTDMDTAAEEADVIMVLVPDEVQPKLYQEHIAAHLKAGNTLAFAHGFNIHYGYIVPPEDVNVIMCAPKGPGHIVRRQFTEGSGVPDLACVQQDATGNAWDIVLSYCWGVGGARSGIIKATFAEETEEDLFGEQAVLCGGLVELVKAGFETLTEAGYPPELAYFECYHEMKMIVDLMYESGIHFMNYSISNTAEYGEYYAGPKVINEQSREAMKEILKRIQDGSFAQEFVDDCNNGHKRLLEQREAINTHPIETTGAQIRSMFSWIKKED",
    "measuredNumber": 0.8
  }
]

Dear colleague, I am looking for the recorded Ratio NADH/NADPH (U/mg) of the following molecule: Se1_KARI^HF2-his6: S. exigua KARI variant S61C (protein, UniProt D0WGK0 1-342, looked up, variant S61C, His6 tag, S. exigua KARI variant S61C) Ketol-acid reductoisomerase …: MSVKTKEKEMAVTILYEQDVDPKVIQGLKVGIIGYGSQGHAHALNLMDSGVDVRVGLREGCSSWKTAEEAGLKVTDMDTAAEEADVIMVLVPDEIQPKVYQEHIAAHLKAGNTLAFAHGFNIHYGYIVPPEDVNVIMCAPKGPGHIVRRQFTEGSGVPDLACVQQDATGNAWDIVLSYCWGVGGARSGIIKATFAEETEEDLFGEQAVLCGGLVELVKAGFETLTEAGYPPELAYFECYHEMKMIVDLMYESGIHFMNYSISNTAEYGEYYAGPKVINEQSREAMKEILKRIQDGSFAQEFVDDCNNGHKRLLEQREAINTHPIETTGAQIRSMFSWIKKED 0.78

Would you kindly repeat that for Se1_KARI^1AA10: S. exigua KARI variant S61C, S63D, I95T (protein, UniProt D0WGK0 1-342, looked up, variant S61C S63D I95T) Ketol-acid reductoisomerase …: MSVKTKEKEMAVTILYEQDVDPKVIQGLKVGIIGYGSQGHAHALNLMDSGVDVRVGLREGCSDWKTAEEAGLKVTDMDTAAEEADVIMVLVPDETQPKVYQEHIAAHLKAGNTLAFAHGFNIHYGYIVPPEDVNVIMCAPKGPGHIVRRQFTEGSGVPDLACVQQDATGNAWDIVLSYCWGVGGARSGIIKATFAEETEEDLFGEQAVLCGGLVELVKAGFETLTEAGYPPELAYFECYHEMKMIVDLMYESGIHFMNYSISNTAEYGEYYAGPKVINEQSREAMKEILKRIQDGSFAQEFVDDCNNGHKRLLEQREAINTHPIETTGAQIRSMFSWIKKED ? 1.2

Would you kindly repeat that for Se1_KARI^LE1-his6: S. exigua KARI variant I95V (protein, UniProt D0WGK0 1-342, looked up, variant I95V, His6 tag, S. exigua KARI variant I95V) Ketol-acid reductoisomerase …: MSVKTKEKEMAVTILYEQDVDPKVIQGLKVGIIGYGSQGHAHALNLMDSGVDVRVGLREGSSSWKTAEEAGLKVTDMDTAAEEADVIMVLVPDEVQPKVYQEHIAAHLKAGNTLAFAHGFNIHYGYIVPPEDVNVIMCAPKGPGHIVRRQFTEGSGVPDLACVQQDATGNAWDIVLSYCWGVGGARSGIIKATFAEETEEDLFGEQAVLCGGLVELVKAGFETLTEAGYPPELAYFECYHEMKMIVDLMYESGIHFMNYSISNTAEYGEYYAGPKVINEQSREAMKEILKRIQDGSFAQEFVDDCNNGHKRLLEQREAINTHPIETTGAQIRSMFSWIKKED ? 0.8

Would you kindly repeat that for Se1_KARI^2C6: S. exigua KARI variant L57V, R58P (protein, UniProt D0WGK0 1-342, looked up, variant L57V R58P) Ketol-acid reductoisomerase …: MSVKTKEKEMAVTILYEQDVDPKVIQGLKVGIIGYGSQGHAHALNLMDSGVDVRVGVPEGSSSWKTAEEAGLKVTDMDTAAEEADVIMVLVPDEIQPKVYQEHIAAHLKAGNTLAFAHGFNIHYGYIVPPEDVNVIMCAPKGPGHIVRRQFTEGSGVPDLACVQQDATGNAWDIVLSYCWGVGGARSGIIKATFAEETEEDLFGEQAVLCGGLVELVKAGFETLTEAGYPPELAYFECYHEMKMIVDLMYESGIHFMNYSISNTAEYGEYYAGPKVINEQSREAMKEILKRIQDGSFAQEFVDDCNNGHKRLLEQREAINTHPIETTGAQIRSMFSWIKKED ? 0.7

Would you kindly repeat that for Se1_KARI^EA8-his6: S. exigua KARI variant L57S (protein, UniProt D0WGK0 1-342, looked up, variant L57S, His6 tag, S. exigua KARI variant L57S) Ketol-acid reductoisomerase …: MSVKTKEKEMAVTILYEQDVDPKVIQGLKVGIIGYGSQGHAHALNLMDSGVDVRVGSREGSSSWKTAEEAGLKVTDMDTAAEEADVIMVLVPDEIQPKVYQEHIAAHLKAGNTLAFAHGFNIHYGYIVPPEDVNVIMCAPKGPGHIVRRQFTEGSGVPDLACVQQDATGNAWDIVLSYCWGVGGARSGIIKATFAEETEEDLFGEQAVLCGGLVELVKAGFETLTEAGYPPELAYFECYHEMKMIVDLMYESGIHFMNYSISNTAEYGEYYAGPKVINEQSREAMKEILKRIQDGSFAQEFVDDCNNGHKRLLEQREAINTHPIETTGAQIRSMFSWIKKED ? 0.76
